Data provenance: PubChem BioAssay (NCI)

Assay: NCI Yeast Anticancer Drug Screen. Data for the rad50 strain (AID 155);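 note: 0% = growth of vehicle-only cultures of the same strain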
Settings: S. cerevisiae rad50 strain growth inhibition; at 33.0 µM
About 79,000 compounds went through this panel and 15% of them were active in at least one assay; those are over-represented in the sample as a whole. The source made the active and inactive calls. Cut-off read from the data, not from the text of the source: active = growth inhibition above about 70%; inactive = the rest.
Labels: true = active, false = inactive

compound: CCOP(=O)(OCC)/C(C#N)=C\c1cccc2ccccc12
class-assignment: true
--
compound: Cc1cc(C)c2[s+]snc2c1
class-assignment: false
--
compound: CC(/C=C/c1ccc([N+](=O)[O-])o1)=N/N1CC(CN2CCOCC2)OC1=O (stereo unspecified)
class-assignment: true
--
compound: O=C(Cc1ccccc1)NN1C(=O)C(Cl)C1c1cc(Br)cc(Br)c1O (stereo unspecified)
class-assignment: true
--
compound: COC1=CCC23C(=O)C=CC(=O)C2(C1)C(=O)c1ccccc1C3=O (stereo unspecified)
class-assignment: false
--
compound: CC1(C)CC(=O)C(C=NC(=S)C(N)=S)=C(O)C1
class-assignment: false
--
compound: O=[N+]([O-])c1cc(Cl)ccc1S(=O)(=O)c1ccc(Cl)cc1[N+](=O)[O-]
class-assignment: true
--
compound: CCN(CC)CCNc1ccc2nc(C)n3c4ccc(OC)cc4c(=O)c1c23
class-assignment: true
--
compound: CCOC(=O)/C(=C/c1cccc(Cl)c1)N(CC)CC
class-assignment: false
--
compound: c1ccc(-c2cc(C3CO3)c3ccccc3n2)cc1 (stereo unspecified)
class-assignment: false
--
compound: O=C(NC(N1CCN(c2cc3c(cc2F)c(=O)c(C(=O)O)cn3C2CC2)CC1)(C(F)(F)F)C(F)(F)F)c1ccccc1
class-assignment: true

* * *

Listing of recorded growth inhibition by entry.
Test: NCI Yeast Anticancer Drug Screen. Data for the bub3 strain (AID 167)
Conditions: S. cerevisiae bub3 mutant strain, at 3.7 µM, stronger effect = higher value
This is part of a sample that, as a whole, favours compounds with a hit. Of some 79,000 tested, about 15% had one in any assay.

compound: CCCCCCCC/C=C\CCCCCCCCN
growth inhibition [%]: 14
//
compound: CC(C)Cc1ncc(CCCN=C(N)N)[nH]c1=O
growth inhibition [%]: -6
//
compound: Cn1c(-c2ccc(/C=N\N3CCN(/N=C/c4ccc(-c5c[n+]6ccsc6n5C)cc4)CC3)cc2)c[n+]2ccsc12
growth inhibition [%]: 26
//
compound: [N-]=[N+]=NC1(c2ccccc2)C(=O)Nc2ccccc2C1=O (configuration not stated)
growth inhibition [%]: -1
//
compound: Cc1cccc(/C=N/NC(=S)NC2CCCCC2)n1
growth inhibition [%]: -3
//
compound: S=C1C(=Nc2ccccc2)N(c2ccccc2)/C(=N\c2ccccn2)N1c1ccccc1
growth inhibition [%]: -13
//
compound: O=c1c2ccccc2nc(-c2ccc(Cl)cc2)n1O
growth inhibition [%]: 75
//
compound: COc1ccc(C(=O)/C=C\c2ccc(Cl)c(Cl)c2)cc1
growth inhibition [%]: 2
//
compound: N#Cc1nc(Nc2ccc(Cl)cc2)sc1N
growth inhibition [%]: 23
//
compound: N#CC1OB(O)c2ccccc21 (configuration not stated)
growth inhibition [%]: -10
//
compound: C/C(=N/NC(=S)Nc1ccccc1C)c1ccccn1
growth inhibition [%]: 1
//
compound: COC(=O)C(Cl)(Cl)N=Nc1c(Cl)cc(Cl)c(C)c1Cl
growth inhibition [%]: 11

* * *

Assay: NCI Yeast Anticancer Drug Screen. Data for the rad50 strain (AID 155);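 note: 0% = growth of vehicle-only cultures of the same strain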
Conditions: S. cerevisiae rad50 strain growth inhibition; at 100.0 µM; stronger effect = higher value
About 79,000 compounds went through this panel and 15% of them were active in at least one assay; those are over-represented in the sample as a whole.

compound: O=C1c2ccccc2C(=O)c2c(O)c(NCCNCCO)cc(O)c21
growth inhibition (%): 94

compound: O=[N+]([O-])c1ccc2[nH]c3c(-c4ccccc4)nccc3c2c1
growth inhibition (%): 96

compound: O=C1C=C(NCCc2cc(Br)c(O)c(Br)c2)C(=O)c2ncccc21
growth inhibition (%): 94

compound: O=C(NNc1ccccc1)C(CCCCNS(=O)(=O)Cc1ccccc1)NS(=O)(=O)Cc1ccccc1 (stereo not given)
growth inhibition (%): 85

compound: O=[N+]([O-])c1cc(Cl)ccc1S(=O)(=O)c1ccc(Cl)cc1[N+](=O)[O-]
growth inhibition (%): 81

* * *

Test: NCI Yeast Anticancer Drug Screen. Data for the bub3 strain (AID 167)
Details: S. cerevisiae bub3 mutant strain, at 11.0 µM
This is part of a sample that, as a whole, favours compounds with a hit. Of some 79,000 tested, about 15% had one in any assay. Calls of active or inactive are those of the source. No stated cut-off is given here; in the data, active means growth inhibition above about 70%; inactive means the rest.
Labels: t = active, f = inactive

query-smiles: O=C(NCCNCCNC(=O)c1cc(-c2ccccc2)nc2ccccc12)c1cc(-c2ccccc2)nc2ccccc12
class-assignment: f
//
query-smiles: Clc1nc(Cl)nc(Nc2cccc3ccccc23)n1
class-assignment: t
//
query-smiles: O=Cc1ccccc1C=O
class-assignment: f
//
query-smiles: COC(=O)/C(C#N)=C\NC(=S)C(N)=S
class-assignment: t
//
query-smiles: CN(C)CCNC(=Cc1ccc2ccccc2[n+]1C)NCCN(C)C
class-assignment: f
//
query-smiles: CC1=C(C)C(=O)C2=C(OCCO2)C1=O
class-assignment: f

* * *

Assay: NCI Yeast Anticancer Drug Screen. Data for the bub3 strain (AID 167)
Conditions: S. cerevisiae bub3 mutant strain, at 50.0 µM, stronger effect = higher value
Compounds without any hit were thinned out: in the full panel of roughly 79,000, 15% have a hit.
# cutoff 70% applies to growth inhibition; >= gives condition met, < gives condition not met

compound: CC(=O)O[C@H]1CC[C@@]2(C)C(=CC[C@@H]3C2CC[C@]2(C)C(=O)NC(=O)CC32)C1 (stereo partly specified)
class-assignment: condition not met

compound: O=C(/N=N/C(=O)Oc1ccccc1)Oc1ccccc1
class-assignment: condition not met

compound: CCCCCCCCCC(=O)N(CCC)CCC
class-assignment: condition met

compound: C[n+]1c(/C=C/c2ccc(/C=N/NC(=O)c3ccc(C(=O)N/N=C/c4ccc(/C=C/c5cn6ccccc6[n+]5C)cc4)cc3)cc2)cn2ccccc21
class-assignment: condition met

compound: NC(CCCCCCCCCCCCC(N)C(=O)c1ccccc1)C(=O)c1ccccc1 (stereo unspecified)
class-assignment: condition not met

compound: S=C1N(c2ccc(Cl)cc2)C2=C(N=Nc3ccccc3)C(=Nc3ccccc3S2)N1c1ccccn1
class-assignment: condition met

compound: O=C(C#Cc1ccccc1)Nc1ccccc1
class-assignment: condition not met

compound: c1ccc2c(c1)ccn2CCc1c[nH]c2ccccc12
class-assignment: condition met

compound: S=C1C(=Nc2ccccc2)N(c2ccccc2)/C(=N\c2ccccn2)N1c1ccccc1
class-assignment: condition met

compound: COc1ccc(N=c2cc(-c3ccccc3)oc3ccccc23)cc1
class-assignment: condition met

compound: CN(C)CCNc1ccc2ncn3c4ccc(O)cc4c(=O)c1c23
class-assignment: condition not met

compound: CC(C)[Si]1(C(C)C)OCC2OC(n3cnc4c(N)ncnc43)C(N)C2O[Si](C(C)C)(C(C)C)O1 (stereo unspecified)
class-assignment: condition met

compound: CN(C)CCNC(=Cc1ccc2ccccc2[n+]1C)NCCN(C)C
class-assignment: condition not met

compound: COc1cc2c(cc1O)[C@H](C)C(c1ccccc1OC)O2 (stereo partly specified)
class-assignment: condition not met

compound: O=C1CSC(c2ccccc2)N1c1ccc(-c2ccc(-n3c(-c4ccccc4)nc4ccccc4c3=O)cc2)cc1 (stereo unspecified)
class-assignment: condition met

compound: CCOc1ccc2nc3ccccc3c(N)c2c1
class-assignment: condition met

compound: CC(=O)Oc1ccc2c(c1)Cc1cc(N3C(=O)C=CC3=O)ccc1-2
class-assignment: condition not met

compound: N#CCCC1C(C#N)C2(Cl)CC1(Cl)C(Cl)=C2Cl (stereo unspecified)
class-assignment: condition met

compound: CN1CCN(C(=O)c2cccc3cccc(C(=O)O)c23)CC1
class-assignment: condition not met

compound: Cc1c2cc[n+](CCO)cc2c(C)c2c1[nH]c1ccc(O)cc12
class-assignment: condition not met

compound: Cc1cc(C)c(S(=O)(=O)c2ccc(Cl)cc2)c(C)c1
class-assignment: condition met

compound: COc1ccc(/C=C2\SC(=S)N(/C=C3\C(=O)N(c4ccccc4)N=C3C)C2=O)cc1OC
class-assignment: condition not met

compound: O=C(NCCCCN(CCCNC(=O)C(F)(F)F)Cc1ccccc1)C(F)(F)F
class-assignment: condition not met

compound: COc1ccc2nc(CCc3ccccc3)ccc2c1
class-assignment: condition met

compound: CC1(C2CC2)C(C#N)(C#N)C1(C#N)C#N
class-assignment: condition not met

compound: CCN(CC)CCNc1ccc2nc(C)n3c4ccc(OC)cc4c(=O)c1c23
class-assignment: condition not met

compound: CC(C)(CN1CCCCC1)C(=O)CC(SCCS(=O)(=O)O)c1ccccc1 (stereo unspecified)
class-assignment: condition not met

compound: O=C1NC(c2cccc(OCc3ccccc3)c2)Nc2ccccc21 (stereo unspecified)
class-assignment: condition not met

compound: CCCCOc1ccc2nc(C)cc(N=[N+]=[N-])c2c1
class-assignment: condition not met

compound: CC(C)OC(=O)NNc1cccc(Cl)c1
class-assignment: condition met

compound: O=C(C#Cc1ccccc1)/C=C/c1ccccc1
class-assignment: condition met

compound: Cc1ccnc2c(O)cccc12
class-assignment: condition met

compound: CCCCCCCCN1COCC(COc2ccccc2C)OC1 (stereo unspecified)
class-assignment: condition met

compound: Oc1c2c(c(O)c3ccccc13)C1(N=N2)c2ccccc2Oc2ccccc21
class-assignment: condition met

compound: CC(=O)NC(c1nc2cc(C)c(C)cc2[nH]1)c1nc2cc(C)c(C)cc2[nH]1
class-assignment: condition not met

compound: O=C(Oc1ccc([N+](=O)[O-])cc1)c1ccc([N+](=O)[O-])cc1
class-assignment: condition met

compound: CN(C)CCNCCCNc1c2ccccc2nc2cccc([N+](=O)[O-])c12
class-assignment: condition not met

compound: O=Cc1ccccc1C=O
class-assignment: condition not met

compound: CC(C)N(CCCNc1c2ccccc2nc2cccc([N+](=O)[O-])c12)C(C)C
class-assignment: condition not met

compound: CC(C)C(c1ccccc1)c1ccccc1
class-assignment: condition not met

compound: CC1=CN2C(c3ccccc3)=NON(c3ccc(C)cn3)C2C=C1 (stereo unspecified)
class-assignment: condition not met

compound: Cc1ccc(NC(=O)CCC(=O)C(C)C(=O)c2ccccc2)c(C)c1 (stereo unspecified)
class-assignment: condition not met

compound: CC(=O)/C=C/c1cc([N+](=O)[O-])ccc1O
class-assignment: condition not met

compound: CN1C(=O)C(CC(=O)O)NC1=S (stereo unspecified)
class-assignment: condition not met

compound: CCC(C)(C)c1ccc(Oc2ccccc2)c(N)c1
class-assignment: condition met

compound: CCO/C=C1\SC(=S)N(c2ccc(OCC)cc2)C1=O
class-assignment: condition met
